Hi there, I'd appreciate the recorded selectivity ratio for every entry that follows.
assay: Selectivity index, ratio of CC50 for human MT4 cells to EC50 for HIV1 RES056 expressing reverse transcriptase K103N/Y181C double mutant; format: toxicity; conditions: read-out: Ratio CC50/EC50

(Q) Report measured selectivity ratio; entry is Cc1cc(C#N)cc(C)c1Oc1nc(Nc2ccc(C#N)cc2)nc2c1ccn2COC(=O)OC(C)C
(A) 7

(Q) In one line, give reported selectivity ratio of the entry Cc1cc(C#N)cc(C)c1Oc1nc(Nc2ccc(C#N)cc2)nc2[nH]ccc12 .
(A) ≥ 22

(Q) Quickly give me recorded selectivity ratio for O=C1Nc2ccc(Cl)cc2[C@@](C#CC2CC2)(C(F)(F)F)O1
(A) > 44

(Q) Note down selectivity ratio recorded for Cc1cc(C#N)cc(C)c1Oc1nc(Nc2ccc(C#N)cc2)nc(N)c1Br
(A) > 97

(Q) Return value of selectivity ratio for input Cc1ccnc2c1NC(=O)c1cccnc1N2C1CC1 , no commentary.
(A) 1
